- tested-target: cdk6 (Homo sapiens)
- Construct: host or cells: coupled in vitro transcription/translation in rabbit reticulocyte lysate
- Sequence (Q00534 whole entry): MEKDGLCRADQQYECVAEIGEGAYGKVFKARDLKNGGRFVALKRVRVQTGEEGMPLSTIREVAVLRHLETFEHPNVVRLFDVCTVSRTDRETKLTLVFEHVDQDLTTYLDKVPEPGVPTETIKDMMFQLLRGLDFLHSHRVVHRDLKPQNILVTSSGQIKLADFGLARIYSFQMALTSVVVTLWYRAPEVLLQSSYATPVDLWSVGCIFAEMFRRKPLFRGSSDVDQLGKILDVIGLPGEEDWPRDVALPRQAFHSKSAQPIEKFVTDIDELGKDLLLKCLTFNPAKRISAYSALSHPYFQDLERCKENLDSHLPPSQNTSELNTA
- measurement-protocol: Peptide precipitation of in vitro translated 35S-labelled cdk6 from reticulocyte lysate
- Type: binding
- particulars: biotinylated peptide on streptavidin agarose beads, densitometry
quantity-measured: relative binding to in vitro expressed cdk6

Task: State the recorded relative binding to in vitro expressed cdk6 for this entry: DAAREGFLDTLVVLHGSGAR (SGSGDAAREGFLDTLVVLHGSGAR) [mouse p16 peptide, peptide derived from mouse p16 corresponding to the 84-103 region of p16]
Output: binds

Task: Form field: reported relative binding to in vitro expressed cdk6 of DAARAGFLDTLQTLLEFQAD (SGSGDAARAGFLDTLQTLLEFQAD) [p18 peptide, peptide derived from p18 corresponding to the 84-103 region of p16]
Output: binds

Where these numbers come from: patent US6569833B1
